Known pIC50 of a selection of molecules
molecular target: dopamine receptors (Rattus norvegicus); assay: [3H] haloperidol binding assay (HRBA); parameters: species or system Long-Evans hooded rats; conditions: displacement of [3H] haloperidol (0.6 nM), rat striatal membranes, pH 7.6, 25° C., 40 minutes; read-out: IC50
Sequence (P61169 whole entry): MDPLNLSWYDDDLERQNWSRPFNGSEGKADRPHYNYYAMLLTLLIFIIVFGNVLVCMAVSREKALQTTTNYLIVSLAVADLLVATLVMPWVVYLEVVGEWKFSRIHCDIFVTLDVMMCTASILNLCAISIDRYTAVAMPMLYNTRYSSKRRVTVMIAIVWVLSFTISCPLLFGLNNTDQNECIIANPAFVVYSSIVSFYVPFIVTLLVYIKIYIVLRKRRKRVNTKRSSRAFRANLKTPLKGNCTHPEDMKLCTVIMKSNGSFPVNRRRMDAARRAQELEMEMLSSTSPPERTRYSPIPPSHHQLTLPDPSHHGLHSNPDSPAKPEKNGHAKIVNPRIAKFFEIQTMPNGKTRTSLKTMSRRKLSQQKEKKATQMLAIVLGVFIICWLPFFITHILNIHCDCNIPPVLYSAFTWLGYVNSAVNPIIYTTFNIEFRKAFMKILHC
Field pIC50 (float): negative decimal logarithm of the concentration in molar.

GET /values?readout=pIC50&item= O=c1ccc2ccc(OCCCN3CCN(c4ncccn4)CC3)cc2o1 [drawing 22] 6.03

Others:
State the recorded pIC50 for this entry: O=c1ccc2ccc(OCCCN3CCN(c4ccccc4)CC3)cc2o1 [drawing 20] 7.82

====

Tested on: Swiss-Webster male mice
Assay: Mouse Activity and Screen Test Procedure (MAST)
Assay type: in vivo
Settings: ip, 1 h, intraperitoneal, one hour prior to testing, active = rating A at 100 mg/kg or less, read-out: Dose at which an overall dose rating of A was obtained
Experimental: The compounds of the present invention are new chemical substances which are useful as pharmaceutical agents for the treatment of psychoses such as, for example, schizophrenia. […] DRUGS: A minimum of three dose levels (10, 30, and 100 mg/kg) are tested for each drug. […] All dosages are calculated as parent compound and given in volumes of 10 mg/kg. […] TESTING: A two-part testing procedure is started one hour postinjection. […] The number of mice falling off the inverted screen is recorded. […]
parameter-measured: minimal effective dose

# annotated cases, reported minimal effective dose shown
Recorded minimal effective dose for CSc1ccc2c(c1)N(CCC1CCCCN1C)c1ccccc1S2 (centres unmarked) [Thioridazine, reference compound] , please? 10 mg/kg

Requested read-out: minimal effective dose. Entry: O=c1ccc2ccc(OCCCN3CCN(c4ccccc4)CC3)cc2o1 [drawing 15] 3 mg/kg

What value of minimal effective dose has been reported for the following compound? Cc1cc(=O)oc2cc(OCCCN3CCN(c4ccccc4)CC3)ccc12 [drawing 16] 1 mg/kg

Look up minimal effective dose for this compound: O=c1ccc2ccc(OCCCN3CCN(c4ncccn4)CC3)cc2o1 [drawing 17] 3 mg/kg

Further cases:
Quick check: minimal effective dose of O=c1ccc2ccc(OCCCN3CC=C(c4ccccc4)CC3)cc2o1 [drawing 18] ? 1 mg/kg
